Listing of recorded z-score by entry.
test: forskolin-driven CRE-LacZ activity in PC12 – cell-based, CRE-LacZ reporter, forskolin-stimulated, primary screen (AID 1146); settings: luminescence, 4.5 h, higher = more signal, called active from +8 up or from −8 down;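 further: PC12 cells with 6xCRE LacZ reporter stimulated by forskolin 10 µM; beta-galactosidase reporter signal reflecting CREB driven transcription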

{"columns": ["molecule", "z-score"],
 "data": [
  ["C=CCNC(=O)[C@H]1[C@@H]2C(=O)O[C@@H](c3ccccc3)[C@@H](c3ccccc3)N2[C@@H](c2ccccc2OCCO)[C@]12C(=O)N(C(=O)OCCOC)c1ccc(C#Cc3ccc(OC)cc3)cc12", -0.261],
  ["COc1ccc([Si](C)(C)[C@H]2[C@H](CC(=O)N3CCC[C@H]3CO)O[C@@]3(C(=O)N(Cc4ccc(N5CCCCC5=O)cc4)c4ccccc43)[C@@H]2C)cc1", 0.44],
  ["O=C1OCCC=C[C@H]2OC34C=CCN(c5ccc6ccccc6c5)C(=O)[C@H]3N(CCO)C(=O)[C@@H]4C12 (some centres not stated)", 0.463],
  ["C=C(CCCC)/C(=C/C[C@@H](OC(C)=O)c1ccc(CO)o1)c1cnc2ccccc2c1", 0.128],
  ["CCCC=C(CCC)[C@@H](NC(=O)OCC(C)C)c1ccc(C(=O)OC)cc1", 0.291],
  ["COC(=O)[C@@]1(Cc2ccc(OC)cc2)[C@H]2c3cc(C(=O)N(C)C)[nH]c3C[C@H]2CN1C(=O)c1ccccc1", -0.289],
  ["COc1ccc(C(=O)Nc2ccc(CN3C(=O)[C@@]4(O[C@@H](CCn5cc(CCO)nn5)[C@H]([Si](C)(C)c5ccc(OC)cc5)[C@H]4C)c4ccccc43)cc2)cc1", -0.632]
]}

All values here come from PubChem BioAssay.
